Origin of values: the Kinase Knowledgebase extract (Sharma et al. 2016)

Target: MAPK14;MAPK11;MAPK12 (human)
Experiment: Inhibition of p38 Kinase Activity
pIC50: −log10 of the molar value.
Readout label: pIC50

The following compounds have reported results that may help.
[[record]]
substance_smiles = "Cc1ccc(C(N)=O)cc1Nc1nc(N[C@H]2CCN(C3CCCC3)C2)nc(N(C)CC(C)C)n1"
target = "MAPK14;MAPK11;MAPK12 (human)"
readout_label = "pIC50"
observed_value = "> 6.00"

[[record]]
substance_smiles = "CONC(=O)c1ccc(C)c(Nc2nc(N[C@H]3CCN(C)C3)nc(N(C)CC(C)(C)C)n2)c1"
target = "MAPK14;MAPK11;MAPK12 (human)"
readout_label = "pIC50"
observed_value = "> 6.00"


Short answer for Cc1ccc(C(=O)Nc2ccc(F)cc2)cc1Nc1nc(N[C@H]2CCNC2)nc(N(C)CC(C)(C)C)n1 : pIC50 was > 6.00
